Target: Kinesin-like protein KIF11 [15-368] (Homo sapiens)
Sequence (P52732 whole entry): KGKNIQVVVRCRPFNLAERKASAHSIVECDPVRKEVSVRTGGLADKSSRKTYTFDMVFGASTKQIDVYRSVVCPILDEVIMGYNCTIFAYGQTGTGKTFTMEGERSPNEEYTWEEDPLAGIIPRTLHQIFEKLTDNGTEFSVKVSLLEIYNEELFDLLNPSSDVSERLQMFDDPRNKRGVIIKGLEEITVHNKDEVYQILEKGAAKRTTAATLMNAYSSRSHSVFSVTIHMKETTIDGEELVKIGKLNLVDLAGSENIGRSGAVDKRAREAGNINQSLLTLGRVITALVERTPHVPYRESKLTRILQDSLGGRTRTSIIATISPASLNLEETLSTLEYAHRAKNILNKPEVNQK
Reported IC50 values are given for each entry in this list.
// units = µM; emit number, no label

[[record]]
molecule = "O=C1CC(c2ccccc2)c2c(n3ncnc3[nH]c2=O)N1 (configuration not stated)"
readout_number = 65


Below: the item to evaluate.
q: Complete the entry with IC50 for FC(F)(F)c1ccc(Nc2ncnc3[nH]ncc23)cc1
a: 78.9

Where do the numbers come from? From BindingDB's records for doi:10.1111/cbdd.12744.
